Molecular target: recombinant human ACC2 (rhACC2) (Homo sapiens, UniProt O00763, V2141I)
Construct: a full length Cytomax clone of ACC2 was purchased from Cambridge Bioscience Limited
Sequence (O00763 whole entry V2141I): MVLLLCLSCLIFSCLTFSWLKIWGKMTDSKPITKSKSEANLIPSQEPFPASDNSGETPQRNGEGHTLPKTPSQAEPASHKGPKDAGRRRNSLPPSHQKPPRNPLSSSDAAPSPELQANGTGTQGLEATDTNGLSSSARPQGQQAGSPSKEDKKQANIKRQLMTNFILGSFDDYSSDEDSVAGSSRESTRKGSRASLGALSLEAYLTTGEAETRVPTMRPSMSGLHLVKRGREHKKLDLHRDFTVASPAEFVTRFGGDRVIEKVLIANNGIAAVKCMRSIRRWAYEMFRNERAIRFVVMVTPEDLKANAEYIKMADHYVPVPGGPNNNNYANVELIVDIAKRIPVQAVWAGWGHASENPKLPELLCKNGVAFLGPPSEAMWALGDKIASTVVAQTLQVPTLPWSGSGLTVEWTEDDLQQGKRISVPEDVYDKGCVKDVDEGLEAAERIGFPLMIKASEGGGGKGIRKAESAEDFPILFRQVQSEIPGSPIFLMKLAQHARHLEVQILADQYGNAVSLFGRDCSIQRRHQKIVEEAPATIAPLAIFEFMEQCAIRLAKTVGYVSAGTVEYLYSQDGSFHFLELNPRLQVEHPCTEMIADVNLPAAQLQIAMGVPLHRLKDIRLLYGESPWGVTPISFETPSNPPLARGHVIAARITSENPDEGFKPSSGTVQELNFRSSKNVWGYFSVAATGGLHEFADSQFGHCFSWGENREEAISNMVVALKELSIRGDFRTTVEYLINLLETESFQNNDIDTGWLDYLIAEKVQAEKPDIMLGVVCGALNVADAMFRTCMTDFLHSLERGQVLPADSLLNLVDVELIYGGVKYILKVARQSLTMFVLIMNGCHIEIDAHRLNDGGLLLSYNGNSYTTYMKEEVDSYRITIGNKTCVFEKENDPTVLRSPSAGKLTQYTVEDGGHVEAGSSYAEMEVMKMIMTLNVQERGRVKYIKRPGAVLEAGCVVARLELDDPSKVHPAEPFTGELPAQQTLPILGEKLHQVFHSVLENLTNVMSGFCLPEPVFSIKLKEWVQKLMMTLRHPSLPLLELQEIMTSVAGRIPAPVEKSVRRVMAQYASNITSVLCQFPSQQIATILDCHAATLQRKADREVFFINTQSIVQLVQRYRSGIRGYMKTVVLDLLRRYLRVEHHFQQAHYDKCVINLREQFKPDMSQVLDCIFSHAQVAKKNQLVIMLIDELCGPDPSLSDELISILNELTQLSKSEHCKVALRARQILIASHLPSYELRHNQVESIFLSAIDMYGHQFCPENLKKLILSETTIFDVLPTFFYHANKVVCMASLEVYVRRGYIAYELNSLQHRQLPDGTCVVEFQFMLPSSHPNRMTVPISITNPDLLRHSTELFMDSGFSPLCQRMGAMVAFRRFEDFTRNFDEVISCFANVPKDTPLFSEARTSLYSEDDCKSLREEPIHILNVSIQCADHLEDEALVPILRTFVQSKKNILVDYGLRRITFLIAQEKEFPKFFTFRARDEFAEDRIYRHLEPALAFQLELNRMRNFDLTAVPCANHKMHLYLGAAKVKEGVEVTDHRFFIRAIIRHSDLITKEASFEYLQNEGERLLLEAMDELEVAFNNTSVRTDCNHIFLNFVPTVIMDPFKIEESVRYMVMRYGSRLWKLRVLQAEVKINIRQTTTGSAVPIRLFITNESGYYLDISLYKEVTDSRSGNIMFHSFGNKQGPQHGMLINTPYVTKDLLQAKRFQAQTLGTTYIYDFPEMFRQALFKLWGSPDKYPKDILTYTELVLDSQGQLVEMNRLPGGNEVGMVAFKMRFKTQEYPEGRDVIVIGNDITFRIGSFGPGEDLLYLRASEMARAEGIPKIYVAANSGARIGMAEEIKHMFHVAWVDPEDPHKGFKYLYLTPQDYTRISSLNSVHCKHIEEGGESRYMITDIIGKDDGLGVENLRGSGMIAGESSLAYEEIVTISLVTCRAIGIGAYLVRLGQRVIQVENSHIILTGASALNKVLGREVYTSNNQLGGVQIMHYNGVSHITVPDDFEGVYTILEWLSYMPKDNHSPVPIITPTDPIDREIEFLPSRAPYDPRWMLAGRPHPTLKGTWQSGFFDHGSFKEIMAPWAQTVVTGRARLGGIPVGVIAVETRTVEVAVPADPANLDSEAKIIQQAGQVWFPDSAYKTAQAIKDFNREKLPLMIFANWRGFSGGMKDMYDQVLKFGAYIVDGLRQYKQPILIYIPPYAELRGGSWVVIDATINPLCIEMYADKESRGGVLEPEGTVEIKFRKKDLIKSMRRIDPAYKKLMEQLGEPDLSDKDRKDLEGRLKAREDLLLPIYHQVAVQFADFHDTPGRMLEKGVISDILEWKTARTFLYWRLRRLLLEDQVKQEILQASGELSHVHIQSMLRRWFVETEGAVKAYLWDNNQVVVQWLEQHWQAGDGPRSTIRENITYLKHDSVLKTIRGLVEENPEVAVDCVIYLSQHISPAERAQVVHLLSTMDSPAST
Assay: recombinant hACC2 Transcreener assay (direct inhibition of ACC2 activity)
Details: Transcreener ADP detection FP assay, 50 μM ATP, 30 μM acetyl-CoA, 50 min at 25° C.
quantity-kind: IC50 (nM)

Examples with answers:
compound	IC50 / nM
CC(C)(C)n1ncc2c1C(=O)CC1(CCN(C(=O)c3cc(F)c4nc[nH]c4c3)CC1)C2	29.9
CC(C)(C)n1ncc2c1C(=O)CC1(CCN(C(=O)c3ccn4cncc4c3)CC1)C2 [Example 11A-32]	96.4
CC(C)(C)n1ncc2c1C(=O)CC1(CCN(C(=O)c3ccc(N4CCOCC4)nc3)CC1)C2 [Example 11A-22]	539
CC(C)n1ncc2c1C(=O)CC1(CCN(C(=O)c3cnc4cc[nH]c4c3)CC1)C2	22.1
CC(C)(C)n1ncc2c1C(=O)CC1(CCN(C(=O)c3ccc4cc[nH]c(=O)c4c3)CC1)C2	28.8
CC(C)(C)n1ncc2c1C(=O)CC1(CCN(C(=O)c3cccc(-c4ncc[nH]4)c3)CC1)C2 [Example 11A-64]	24.4
CC(C)(C)n1ncc2c1C(=O)CC1(CCN(C(=O)c3ccc4c(=O)[nH]ccc4c3)CC1)C2	334
CC(C)n1ncc2c1C(=O)CC1(CCN(C(=O)c3ccc4c(=O)[nH]ccc4c3)CC1)C2	27

I = CC(C)n1ncc2c1C(=O)CC1(CCN(C(=O)c3cnc4[nH]cnc4c3)CC1)C2 [Example 11A-33]
II = CCn1ncc2c1C(=O)CC1(CCN(C(=O)c3ccc(Cl)c(C)c3)CC1)C2
III = CC(C)n1ncc2c1C(=O)CC1(CCN(C(=O)c3ccc4cn[nH]c4c3)CC1)C2
## Task Reorder: IC50, max to min. When ranking, write the labels in the order the request describes.
## Result II, I, III

P = Cc1nc2c(F)cc(C(=O)N3CCC4(CC3)CC(=O)c3c(cnn3C(C)C)C4)cc2[nH]1
Q = Cc1cc(C(=O)N2CCC3(CC2)CC(=O)c2c(cnn2C(C)C)C3)n(-c2cccnc2)n1 [Example 11A-4]
## Task Just tell me: smaller IC50 value, P or Q ? Response format: the label of the selected entry.
## Result P

P = Cc1nc2ccc(C(=O)N3CCC4(CC3)CC(=O)c3c(cnn3C(C)C)C4)cc2[nH]1
Q = CC(C)n1ncc2c1C(=O)CC1(CCN(C(=O)c3cnc(-c4ccccn4)[nH]3)CC1)C2 [Example 11A-37]
## Task I'm curious whether P or Q has the smaller IC50 number. Which is it? Lab log: write the label of the selected item as the result.
## Result P
(P: 48.6 nM, Q: 463 nM)

====

Target: recombinant human ACC1 (rhACC1) (Homo sapiens, UniProt Q13085, DEL44-44)
Construct: recombinant baculovirus containing full length human ACC1 cDNA
Assay: recombinant hACC1 Transcreener assay (direct inhibition of ACC1 activity)
Conditions: Transcreener ADP detection FP assay, 50 μM ATP, 30 μM acetyl-CoA, 120 min at 25° C.
pIC50: −log10 of the molar value.
quantity-kind: pIC50

These solved cases illustrate the format of a correct answer.
molecule	obs-value
CC(C)(C)n1ncc2c1C(=O)CC1(CCN(C(=O)c3cc(Cl)c4nc[nH]c4c3)CC1)C2	7.29
Cc1ncc(C(=O)N2CCC3(CC2)CC(=O)c2c(cnn2C(C)C)C3)c(N)n1	5.69
CC(C)(C)n1ncc2c1C(=O)CC1(CCN(C(=O)c3ccc4c(c3)CC(=O)N4)CC1)C2	6.77
CC(C)n1ncc2c1C(=O)CC1(CCN(C(=O)c3cc(Cl)c4[nH]c(=O)[nH]c4c3)CC1)C2	7.18
CC(C)n1ncc2c1C(=O)CC1(CCN(C(=O)c3c[nH]c4ncccc34)CC1)C2	5.97

P = Cn1ncc2c(N)c(C(=O)N3CCC4(CC3)CC(=O)c3c(cnn3C(C)(C)C)C4)cnc21
Q = CC(C)(C)n1ncc2c1C(=O)CC1(CCN(C(=O)c3cnc4[nH]cnc4c3)CC1)C2 [Example 11A-39]
## Task Larger number for pIC50: P , or Q ? Returns: label corresponding to the selected item.
## Result Q

I = Cn1c(=O)[nH]c2cc(C(=O)N3CCC4(CC3)CC(=O)c3c(cnn3C(C)(C)C)C4)ccc21
II = O=C1CC2(CCN(C(=O)c3ccc4[nH]ncc4c3)CC2)Cc2cnn(C3COC3)c21
## Task Returns: the label, I or II , whose recorded pIC50 is the lower number. // return label of chosen record
## Result II
(II: 6.15, I: 7.13)

1 = Cc1cc(C(=O)N2CCC3(CC2)CC(=O)c2c(cnn2C2CCC2)C3)ccc1Cl
2 = Cc1cc(C(=O)N2CCC3(CC2)CC(=O)c2c(cnn2C(C)C)C3)c(N)c(C)n1 [Example 11A-2]
3 = CC(C)n1ncc2c1C(=O)CC1(CCN(C(=O)c3cnc4ccccc4n3)CC1)C2
4 = CC(C)n1ncc2c1C(=O)CC1(CCN(C(=O)c3cnc(N4CCOCC4)nc3)CC1)C2
5 = Cc1cc(C(=O)N2CCC3(CC2)CC(=O)c2c(cnn2CC2CCCO2)C3)ccc1Cl (stereo not shown)
## Task Order the entries by their reported pIC50, beginning at the minimum. Answer by naming the labels in the order asked.
## Result 4, 5, 3, 2, 1
(4: 4.52, 5: 5.08, 3: 5.63, 2: 5.83, 1: 6.19)

1 = CC(C)n1ncc2c1C(=O)CC1(CCN(C(=O)c3cc4cnccc4[nH]3)CC1)C2 [Example 11A-56]
2 = Cc1cc(C(=O)N2CCC3(CC2)CC(=O)c2c(cnn2Cc2ccccc2)C3)ccc1Cl
## Task // compare measured pIC50 between 1 and 2 ; output the lower one // return label of chosen record
## Result 2

====

Molecular target: recombinant human ACC2 (rhACC2) (Homo sapiens, UniProt O00763, V2141I)
Construct: a full length Cytomax clone of ACC2 was purchased from Cambridge Bioscience Limited
Assay: recombinant hACC2 Transcreener assay (direct inhibition of ACC2 activity)
Details: Transcreener ADP detection FP assay, 50 μM ATP, 30 μM acetyl-CoA, 50 min at 25° C.
pIC50: −log10 of the molar value.
quantity-kind: pIC50

molecule	quantity-kind	obs-value
CC(C)(C)n1ncc2c1C(=O)CC1(CCN(C(=O)c3cnc4[nH]ccc4c3)CC1)C2	pIC50	7.63
CC(C)n1ncc2c1C(=O)CC1(CCN(C(=O)c3cc4ncccc4[nH]3)CC1)C2 [Example 11A-48]	pIC50	7.39

1 = CC(C)n1ncc2c1C(=O)CC1(CCN(C(=O)c3cnc4[nH]ncc4c3)CC1)C2
2 = CC(C)(C)n1ncc2c1C(=O)CC1(CCN(C(=O)c3nn(-c4ccccc4)nc3N)CC1)C2 [Example 11A-12]
## Task Between 1 and 2 , which one shows the smaller pIC50 number? // return label of chosen record
## Result 2
(2: 6.07, 1: 7.16)

====

Target: recombinant human ACC1 (rhACC1) (Homo sapiens, UniProt Q13085, DEL44-44)
Construct: recombinant baculovirus containing full length human ACC1 cDNA
Experiment: recombinant hACC1 Transcreener assay (direct inhibition of ACC1 activity)
Details: Transcreener ADP detection FP assay, 50 μM ATP, 30 μM acetyl-CoA, 120 min at 25° C.
pIC50: −log10 of the molar value.
quantity-kind: pIC50

Illustrative cases are given below, each with its answer.
compound	quantity-kind	obs-value
CC(C)n1ncc2c1C(=O)CC1(CCN(C(=O)c3ccc(-c4ncc[nH]4)cc3)CC1)C2 [Example 11A-1]	pIC50	6.83
CC(C)n1ncc2c1C(=O)CC1(CCN(C(=O)c3ccnc(-c4cc[nH]n4)c3)CC1)C2 [Example 11A-18]	pIC50	6.63
CC(C)n1ncc2c1C(=O)C(C)(C)C1(CCN(C(=O)c3ccc4[nH]ncc4c3)CC1)C2	pIC50	5.82
CC(C)n1ncc2c1C(=O)CC1(CCN(C(=O)c3cnc4c(cnn4C)c3N)CC1)C2	pIC50	6.55
Cc1cc(C(=O)N2CCC3(CC2)CC(=O)c2c(cnn2C2CCOC2)C3)ccc1Cl (stereo not shown)	pIC50	6.10

A = CC(C)n1ncc2c1C(=O)CC1(CCN(C(=O)c3ccc4cnccc4c3O)CC1)C2
B = CC(C)n1ncc2c1C(=O)CC1(CCN(C(=O)c3cc4cccnc4[nH]3)CC1)C2
C = CC(C)n1ncc2c1C(=O)CC1(CCN(C(=O)c3cc(Cl)c4[nH]ncc4c3)CC1)C2
D = CC(C)(C)n1ncc2c1C(=O)CC1(CCN(C(=O)c3ccc4cnccc4n3)CC1)C2 [Example 11A-61]
E = CC(C)n1ncc2c1C(=O)CC1(CCN(C(=O)c3ccc4[nH]cnc4n3)CC1)C2 [Example 11A-65]
## Task Please list these compounds in decreasing order of pIC50. Give the labels in the order specified.
## Result C, B, A, E, D

I = CC(C)n1ncc2c1C(=O)CC1(CCN(C(=O)c3cc4[nH]ccn4n3)CC1)C2
II = CC(C)n1ncc2c1C(=O)C(C)C1(CCN(C(=O)c3ccc4[nH]ncc4c3)CC1)C2 (single isomer, unassigned; (-)) [Example 5A-2]
## Task Hi there! Just curious which has the higher pIC50 between I and II . The response must carry the label of the picked entry.
## Result II

a = Cc1nc2c(Cl)cc(C(=O)N3CCC4(CC3)CC(=O)c3c(cnn3C(C)(C)C)C4)cc2[nH]1
b = Cc1nc2ccc(C(=O)N3CCC4(CC3)CC(=O)c3c(cnn3C(C)C)C4)cc2[nH]1
## Task Field: lower pIC50 | Options: a / b Lab note: record the label of whichever item you select.
## Result b
